Where a name gives a salt, the structure may show the parent alone.
Each entry below lists one item and its recorded melting point value.

>  <molecule>
O=C(CCCN1CCC(c2c[nH]c3ccc(F)cc23)CC1)N1CCc2ccccc2C1 [Compound 7]

>  <recorded measurement>
146 to 148 °C

$$$$
>  <molecule>
O=C1CCc2ccccc2N1CCCCN1CCC(c2c[nH]c3ccc(F)cc23)CC1 (as salt: hydrochloride) [Compound 4]

>  <recorded measurement>
212 to 213 °C

$$$$
>  <molecule>
O=C1CCc2ccccc2N1CCCN1CC=C(c2c[nH]c3ccc(F)cc23)CC1 (as salt: oxalate) [Compound 3a]

>  <recorded measurement>
220 to 223 °C

$$$$

For the next question, use this molecule.
Enquiry: Endpoint output: melting point of O=C(CCCN1CCC(c2c[nH]c3ccc(Cl)cc23)CC1)N1CCc2ccccc2C1 [Compound 8] . Value?
Return: 172 to 175 °C
